System: Human alphaherpesvirus 1
Test: Antiviral activity against HSV1 infected in African green monkey Vero cells by plaque formation assay
Type: functional
Design: concentration or dose not given beside the values
Returns condition met if the recorded Activity is greater than or equal to 40%, and condition not met otherwise.

Some solved entries appear below for comparison.
smiles_code=N=C1C(=S)N(c2cc(Cl)cc(Cl)c2)C(=O)N1c1c(Cl)cccc1Cl discrete_label="condition not met"
smiles_code=COc1ccc(OC)c(N2C(=O)N(c3ccc4c(c3)Cc3ccccc3-4)C(=N)C2=S)c1 discrete_label="condition not met"
smiles_code=COc1ccc(N2C(=O)N(c3cccc(Cl)c3)C(=N)C2=S)c(OC)c1 discrete_label="condition met"

Qu. Given the entry Cc1ccc(N2C(=N)C(=S)N(c3cc(Cl)cc(Cl)c3)C2=O)cc1 , answer whether its Activity meets or surpasses 40%.
Ans. condition met

Qu. Same lookup for CSc1ccc(N2C(=N)C(=S)N(c3cc(Cl)cc(Cl)c3)C2=O)cc1 , please.
Ans. condition not met

Qu. Also check Cc1ccc(F)cc1N1C(=N)C(=S)N(c2cc(Cl)cc(Cl)c2)C1=O
Ans. condition met

###

Tested on: Bacillus subtilis
Experiment: Antibacterial activity against Bacillus subtilis NCTC 10400 at 5 mg after 24 hrs by agar well diffusion assay
Format: functional
Conditions: NCTC 10400, 24 h, read-out: DIZ
endpoint: zone of inhibition at 5000 µg/disc (mm)
Give just the numeric value; mm need not be written.

smiles_code=COc1ccc(N2C(=O)N(c3cccc(Cl)c3)C(=N)C2=S)c(OC)c1 endpoint="zone of inhibition at 5000 µg/disc" quantity_unit=mm observed_result=20

Qu. Which zone of inhibition at 5000 µg/disc value is on record for COc1ccc(OC)c(N2C(=O)N(c3ccc(SC)cc3)C(=N)C2=S)c1 ?
Ans. 29

Qu. Okay, and N=C1C(=S)N(c2ccccc2)C(=O)N1c1c(Cl)cccc1Cl ?
Ans. 18

Qu. Same thing, different compound: COc1ccc(OC)c(N2C(=O)N(c3ccc(C)cc3)C(=N)C2=S)c1
Ans. 16

Qu. Same read-out for N=C1C(=S)N(c2cc(Cl)cc(Cl)c2)C(=O)N1c1ccc(Cl)c(C(F)(F)F)c1 ?
Ans. 20

Qu. Would you mind doing N=C1C(=S)N(c2cc(Cl)cc(Cl)c2)C(=O)N1c1c(Cl)cccc1Cl as well?
Ans. 19

###

Test system: Bacillus subtilis
Assay: Antibacterial activity against Bacillus subtilis NCTC 10400 at 5 mg after 24 hrs by agar well diffusion assay
Type: functional
Details: NCTC 10400, 24 h, read-out: DIZ
Reported zone of inhibition at 5000 µg/disc values follow for various compounds
Dear colleague, please return just the value in mm, with no unit written.

smiles_code=CC[C@H]1OC(=O)[C@H](C)[C@@H](O[C@H]2C[C@@](C)(OC)[C@@H](O)[C@H](C)O2)[C@H](C)[C@@H](O[C@@H]2O[C@H](C)C[C@H](N(C)C)[C@H]2O)[C@](C)(O)C[C@@H](C)C(=O)[C@H](C)[C@@H](O)[C@]1(C)O observed_result=40

Qu. Could you share which zone of inhibition at 5000 µg/disc value was measured for Cc1ccc(F)cc1N1C(=N)C(=S)N(c2ccc(Br)cc2)C1=O ?
Ans. 22

Qu. And then Cc1ccc(F)cc1N1C(=N)C(=S)N(c2cc(Cl)cc(Cl)c2)C1=O , what is it?
Ans. 20

Qu. Same again, this time with COc1ccc(N2C(=N)C(=S)N(c3cc(OC)ccc3OC)C2=O)cc1
Ans. 28

Qu. Ok, now Cc1ccc(N2C(=N)C(=S)N(c3cc(Cl)cc(Cl)c3)C2=O)cc1
Ans. 16

Qu. Would you kindly repeat that for N=C1C(=S)N(c2cc(Cl)cc(Cl)c2)C(=O)N1c1cccc(Cl)c1 ?
Ans. 30
